B1: WEE1 (parent)
chain: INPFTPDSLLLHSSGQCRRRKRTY

- Variants of: B1
- experimental.protocol: protein stability index of a GFP-peptide fusion (GPS, HEK-293T) (PSI 1-6); higher = more stable;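 note: lentivirally expressed fusions sorted by FACS into six bins by GFP to DsRed ratio, PSI derived from sequencing read proportions per bin multiplied by bin number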
- assay.conditions: c terminus: a fixed tail appended
In this section, each of the variants is paired with its reported protein stability index.
The answer should be a number; do not append a unit.

Some entries whose results are on file:
>>> quantitative_result("L10Y")
2.89
>>> quantitative_result("C17I")
4.01
>>> quantitative_result("C17S")
4
>>> quantitative_result("R19L")
3.03

Task: What measured protein stability index goes with L11P ?
Result: 4.55

Task: What measured protein stability index goes with R18V ?
Result: 3.83

Task: What measured protein stability index goes with R19P ?
Result: 3.03

Task: What measured protein stability index goes with F4W ?
Result: 3.87

Task: What measured protein stability index goes with S8M ?
Result: 2.75

Task: What measured protein stability index goes with Q16C ?
Result: 2.8

Task: What measured protein stability index goes with S13I ?
Result: 2.85

Task: What measured protein stability index goes with S8P ?
Result: 2.77

Task: What measured protein stability index goes with N2T ?
Result: 3.59

Ref: the supplement of paper PMC10567573
